B1: TPR t1 (parent)
chain: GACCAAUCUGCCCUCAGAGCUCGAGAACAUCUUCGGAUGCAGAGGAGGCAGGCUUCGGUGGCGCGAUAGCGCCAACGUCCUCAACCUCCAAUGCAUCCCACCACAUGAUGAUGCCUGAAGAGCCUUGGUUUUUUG

Variants of: B1
Method: polymerase ribozyme fitness, log enrichment relative to wild type (log ratio); higher = more active; in vitro selection for triplet polymerase activity
Could you please report measured polymerase ribozyme fitness (log ratio) for the items listed next?
// return just the number, without any unit appended

Task: # polymerase ribozyme fitness (log ratio) lookup, item GACCAAUCUGACCUCAGAGCGCGAGAACAUCUUCGGAUGCGGAGGAGGCAGGCUUCGGUGGCGCGAUAGCGCCAACGUCCUCAACCUCCAAUGCAUCCCACCACAUGAUGAUGCCUGAAGUGCCUUGGUUUUUUG [C11A U21G A41G A121U]
Result: -0.0986

Task: # polymerase ribozyme fitness (log ratio) lookup, item GACCAAUCUGGCCUCAGAGCUCGAGAACAUUUUCGGAUGCAGAGGAGGCAGACUUCGGUGGCGCGAUAGCGCCAACGUCCUCAACCUCCAAUGCAGCCCACCACAUGAUGAUGCCUGAACAGCCUUGGUUUUUUG [C11G C31U G52A U96G G120C]
Result: -5.5

Task: # polymerase ribozyme fitness (log ratio) lookup, item GACCAAUCUGCCCUCAGAGCUCGAGAACAUCUUCGGAUGCAGAGGAGGCAGGCUUCGGUGGCGCGAUAGCGCCAACGUCCUCAACCCCCAAUGCAUCCCACCACAUGAUGAUGCCUGAAGAGCUUUGGUUUUUUG [U87C C124U]
Result: 0.583

Task: # polymerase ribozyme fitness (log ratio) lookup, item GACCAAUCUGCCCUCAGAGCUCGAGAACAUCUUCGGAUGCAGAGGAGGCAGGCUUCGGUGGCGCGAUAGUGCCAACGGCCUCAACCUCCAAUGCAUCCCACCACAUGGUGCUGCCUGAAGAGCCUUGGUUUUUUG [C70U U78G A108G A111C]
Result: -2.26

Task: # polymerase ribozyme fitness (log ratio) lookup, item GACCAAUCUGCCCUCAUAGCUCGAGAACAUCUUGGGAUGCAGAGGAGGCGGGCUUCGGUGGCGCGAUAGCGCCAACGUCCUCAACCUCCAAUGCAUCCCACCACAUGAUGAUGCCUGAAGAGCCUUGGUUUUUUG [G17U C34G A50G]
Result: -7.24

Task: # polymerase ribozyme fitness (log ratio) lookup, item GACCAAUCUGCCCUCAGAGCUCGAGAACAUCUUCGGAUGCAGAGGAGGCAGGGUUCGGUGGCGCGAUAGUGCCAACGUCCUCAACCUCCAAUGCAUCCCACCACAUGAUGAUGCCUGAAGAGCCCUGGUUUUUUG [C53G C70U U125C]
Result: -3.18

Task: # polymerase ribozyme fitness (log ratio) lookup, item GACCAAUCUGCCAUCAGAGCUCGAGAACAUCUUCGGAUCCAGAGGAGGCAGGCUUCGGGGGCGCGAUAGCGCCAACGUCCUCAACCUCCAAUGCAUCCCACCAUAUGAUGAUGCCUGAAGAGCCUUGGUUUUUUG [C13A G39C U59G C104U]
Result: -1.47

Task: # polymerase ribozyme fitness (log ratio) lookup, item GACCAAUCCGCCCUCAGAGCUCGAGGACAUCUUAGGAUACAGAGGAGGCAGGCUUCGGUGGCGCGAUAGCGCCAACGUCCUCAACCUCCAAUGCAUACCACCACAUGAUGAUGCAUGAAGGGCCUUGGUUUUUUG [U9C A26G C34A G39A C97A C115A A121G]
Result: -1.6

Task: # polymerase ribozyme fitness (log ratio) lookup, item GACCAAUCUGCCCUCAGAGCUCGAGAACAUCUUCGGAUGCAGGGGAGGCAGGCUUCGGUUGCGCGAUAGCGCCAACGUCCUCAACCUCCAAUGCAUCCCACCACAUGAUGAUGCCUGAAGAGCCUUGGUUUUUUG [A43G G60U]
Result: -1.12

Task: # polymerase ribozyme fitness (log ratio) lookup, item GACCAAUCUGUCCUCAGAGCUUGAGAACAUCUUCGGAUGCAGAGGAGGCAGGCUUCGGUGGCGCGAUAGUGCCAACGUCCUCAACCUCCAAUGCAUCCUACCACAUGAUGAAGCCUGAAGAGCCUUGGUUUUUUG [C11U C22U C70U C99U U112A]
Result: -6.17

Task: # polymerase ribozyme fitness (log ratio) lookup, item GACCAAUCUGCCCUCAGAGCUCGAGAACAUCUUCGGAUGCAGAGGAGGCAGGCUUCGGUGGCGCGAUAGCGCCAACGUCCUCAACCUCCAAUGCAACCCACCACAUGAUGAUACAUGAACAGCCUUGGUUUUUUG [U96A G113A C115A G120C]
Result: -3.71

Task: # polymerase ribozyme fitness (log ratio) lookup, item GACCAAUCUGCCCUCAGAGCUCGAGAACAUCUUCGGAUGCAGAGGAGGCAGGCUUCGGUGGCGCGAUAGCGCCAACGUCUUCAACCUCCAAUGCAUCCCACAACAAGAUGAAGCCUGAAGAGCCUUGGUUUUUUG [C80U C102A U106A U112A]
Result: -4.1

Task: # polymerase ribozyme fitness (log ratio) lookup, item GACGAAUCUGCCCUCAGAGCUCGAGAACAUCAUCGGAUGCAGAGGAGGCAGGCUUCGGUGGCGCGAUAGCUCCAACGUCCUCAACCUCCAAUGCAUCCCACCACAUGAUGAUGCCUGAAGCGCCUUGGAUUUUUG [C4G U32A G71U A121C U129A]
Result: -4.53

Task: # polymerase ribozyme fitness (log ratio) lookup, item GACCAAUAUGCCCUCAGAGCUCGAGAACAUCUUCGGAUGCAGAGGAGGUAGGCUUCGGUGGCGCGAUAGCGCCAACGUCCUCAACCUCCAAUGCAUCCCACCACAUGAUGAUGCCUGAAGAGCCUUGGUUUUUUG [C8A C49U]
Result: 0.0763

Task: # polymerase ribozyme fitness (log ratio) lookup, item GACCAAUCUGCCCUCAGAGCUCGAGAACAUCUUCGGAUGCAGAGGAGGGAAGCGUCGGUGGCGCGAUAGCGCCAACGUCCUCAACCUCCAAUGCAUCCCACCACAUGAUGAUGCCUGAAGAGCCUUGGUUUUUUG [C49G G51A U54G]
Result: -4.1

Task: # polymerase ribozyme fitness (log ratio) lookup, item GACCAAUCUGCCCUCAGAGCUCGAGAACAUCUUAGGAUGCAGAGGAGGCAGGCUUCGGAGGCGCGAUAGCGCCAACGUCCUCAACCUCCAAUGCAUCCCACCACAUGAUGAUGCUUGUAGAGCCUUGGUUUUUUG [C34A U59A C115U A118U]
Result: -6.82

Task: # polymerase ribozyme fitness (log ratio) lookup, item GACCAAUCUUCCCUCAGAGCGCGAGAACAUCUUCGGAUGCAGAGGAGGCAGGCUUCGGUGGCGAGAUAGCGCCAACGUCCUCAACCUCCAAUGCGUCCCACCACAUGAUGAUGCCUGAAGAGUCAUGGUUUUUUG [G10U U21G C64A A95G C123U U125A]
Result: -6.83

Task: # polymerase ribozyme fitness (log ratio) lookup, item GACCAAUCUGCCCUCAGAGCUCGAGAACGUCUUAGGAUGAAGAGGAGGCAGGCUUCGGUGGCGCGAUAGCGCCAACGUCCUCAACCUCCAAUGCAUCCCACCACAGGAUGAUUCCUGAAGAGCCUCGGUUUUUUG [A29G C34A C40A U106G G113U U126C]
Result: -7.15

Task: # polymerase ribozyme fitness (log ratio) lookup, item GACCAAUCUGCCCUCAGAGCUCGAGAACAUCUUCGGAUGCAGAGGAGGCAGGCUUCGGUGGCGCGAUAGCGCCAACGUCCUCAACCUACAAUGCAUCCCACCACAUGAUGAUGCCUGAAGAGUCUUGGUUUUUUG [C88A C123U]
Result: 1.08

Task: # polymerase ribozyme fitness (log ratio) lookup, item GACCAAUCUGCCCUCAGAGCUCGAGAACAUCUUCGGAUGCAGAGGAGGCAGGCUUCGGUGGCGCGAUAGCGCCAGCGUCCUUAACCUCCAAUGCAUCCCACCACAUGAUGAUGCCUGAAGGGCGUUGGUUUUUUG [A75G C82U A121G C124G]
Result: 1.16

Task: # polymerase ribozyme fitness (log ratio) lookup, item GGCCAAUCUGCCCUCAGAGCUCGAGAACAUCUUCGGAUGCAGAGGAGGCAGGCUUCGAUGGCGCGAUAGCGCCAACGUCCUCAACCUCCAAUGCAUCCCACCACAAGAUGAUGCCUGAAGAUUCUUGGUUUUUUG [A2G G58A U106A G122U C123U]
Result: 0.431

Task: # polymerase ribozyme fitness (log ratio) lookup, item GACCAAUCUGCCCUCAGAGCUCGAGAACAUCUUCGGAUGCAGAGGAGGCAGGCUUCGGUGGCGCGAUAGCGCCAACGCCCUCAACCUCCAAUGCAUCCCACCACAUGAAGAUGCCUGAAGAGCCUUGGUUUUUUG [U78C U109A]
Result: -5.34
